Kindly supply the reported GI50 values for the records listed here.
# Test system: MDA-MB-435
# Test Details: NCI tumour cell line growth inhibition, 48 h
Active and inactive are the calls of the source. Cut-off read from the data, not from the text of the source: active = GI50 up to about 1.1 µM and inactive = higher.

Solved cases (5 shown):
C=C1c2nc3ccccc3n2C=C(c2ccc(OC)cc2)N1c1ccccc1: 1.17 µM (inactive)
CC1CNC(c2cccc(-c3nc(-c4cccc(C5=NC(C)CN5)c4)nc(N(C)C)n3)c2)=N1 (centres undefined): 1.19 µM (inactive)
COc1ccc2c3c1O[C@H]1[C@@H](O)CC[C@@]4(O)[C@@H](C2)N(C)CC[C@]314: > 100 µM (inactive)
CC1=CC2(C)C=C[C@@H]1C(=O)[C@@]1(C)CC[C@@](O)(C(C)C)[C@H]1CC2: 20.3 µM (inactive)
C/C(=N\n1c(Cc2ccccc2)n[nH]c1=O)c1ccccc1: > 100 µM (inactive)

Please state GI50 for every compound in the list that follows.
1. O=C(/C=C/c1ccccc1)NNC(=O)c1c(Cl)c(Cl)c(Cl)c(Cl)c1-c1nc2ccccc2[nH]1
2. COc1cc(C/C=C/c2ccccc2)c(OC)cc1O [VIOLASTYRENE]
3. CCCCCCCCCCCCCCCCOCC(Cl)COP(=O)(O)OP(=O)(O)OCC1OC(n2cnc3c(N)ncnc32)C(O)C1O (centres undefined)
4. CCOC(=O)CNC(=O)C(CSCc1ccc(Br)cc1)NC(=O)CCC(N)C(=O)OCC (centres undefined)

15.7 µM (inactive)
18.5 µM (inactive)
54.7 µM (inactive)
> 50 µM (inactive)

----------
Kindly supply the reported GI50 values for the records listed here.
# Tested on: OVCAR-4
# Test Details: NCI tumour cell line growth inhibition, 48 h
Counter-ions that a name gives are not always drawn. Activity calls are given as the source filed them. Cut-off read from the data, not from the text of the source: active = GI50 up to about 1.1 µM and inactive = higher.

Solved cases (3 shown):
Cc1c(CCO)c(O)n2c(nc3ccccc32)c1C#N: 39.4 µM (inactive)
COc1ccc2c3c1O[C@H]1[C@@H](O)CC[C@@]4(O)[C@@H](C2)N(C)CC[C@]314: > 100 µM (inactive)
Oc1nc(-c2ccc3ccccc3c2)nc2ccccc12: 3.81 µM (inactive)

Please state GI50 for every compound in the list that follows.
1. O=C1Oc2ccccc2C(=O)/C1=C/NC(=S)Nc1ccccc1
2. CC(CN1c2ccccc2Sc2ccccc21)N(C)C (stereo not given) [PROMETHAZINE HYDROCHLORIDE]
3. COc1cc(-c2cc(O)c3cc4c(cc3n2)OCO4)cc(OC)c1OC
4. COc1ccc(N(c2ccc(C#N)cc2)c2ccc(C#N)cc2)cc1
5. CCOC(=O)C1(C#N)C(c2ccccc2)CC(O)(c2ccc(Cl)cc2)C(C(=O)c2ccc(Cl)cc2)C1c1ccccc1 (stereo not given)

1. 39.6 µM (inactive)
2. 16.4 µM (inactive)
3. > 100 µM (inactive)
4. > 100 µM (inactive)
5. > 100 µM (inactive)

Please state GI50 for every compound in the list that follows.
1. O=C1c2ccccc2-c2nnc(-c3ccccc3)cc21
2. O=C(O)C(Cc1cccs1)NC(=O)C(F)(F)F (stereo not given)

1. > 10 µM (inactive)
2. > 100 µM (inactive)

----------
# Test system: SF-295
# Test Details: NCI tumour cell line growth inhibition, 48 h
Calls of active or inactive are those of the source. No stated cut-off is given here; in the data, active = GI50 up to about 1.1 µM and inactive = higher.
Outcome (select one): Yes (active), No (inactive)

Consider the worked cases shown below.
Nc1nc(N)nc(CC(=O)O)n1: No
CN(C)Cc1ccc(C(C)(C)C)cc1-c1cc(C(C)(C)C)ccc1CN(C)C: No
COc1cc(C(=O)C2CC3(CCC2(O)c2cc(OC)c(OC)c(OC)c2)CC(=O)Nc2ccccc2C3=O)cc(OC)c1OC (centres undefined): No
Cc1cc2nc3c(C#N)c4c(c(Nc5ccc(Cl)cc5)n3c2cc1C)CCC4: No
CCOC(=O)c1c(-c2ccc(OC)cc2)c(C#N)c(=S)n(C2OC(COC(C)=O)C(OC(C)=O)C(OC(C)=O)C2OC(C)=O)c1C (centres undefined): No

From here, focus on the item given below.
Query: recorded result category for CC(=O)NNc1nc(C)c(C(/C=C/c2ccc(Cl)cc2)=N\NS(=O)(=O)c2ccc(C)cc2)s1 in this test
No

----------
# Tested on: SK-OV-3
# Test Details: NCI tumour cell line growth inhibition, 48 h
Calls of active or inactive are those of the source. No stated cut-off is given here; in the data, active = GI50 up to about 1.1 µM and inactive = higher.
Kindly supply the reported GI50 values for the records listed here.

Solved cases (4 shown):
COc1ccc(/C=C/C(=N/NC(=O)N/N=C(/C=C/c2ccc(OC)cc2)C(C)(C)CN2CCCCC2)C(C)(C)CN2CCCCC2)cc1: 1.98 µM (inactive)
O=C1Nc2ccccc2C(=O)/C1=C/NC(=S)NCCc1ccccc1: > 100 µM (inactive)
COc1cccc(-c2nc(-c3cnccn3)n(Cc3ccccc3)n2)c1: 75.9 µM (inactive)
Oc1ccc(C(=C(Br)c2ccccc2)c2ccc(O)cc2)cc1: 5.01 µM (inactive)

Please report the recorded GI50 for CC1=C(C2=C(C)C(=O)c3c(c(C=O)c(O)c(O)c3C(C)C)C2=O)C(=O)c2c(C=O)c(O)c(O)c(C(C)C)c2C1=O .
3.21 µM (inactive)

----------
# System: M14
# Test Details: NCI tumour cell line growth inhibition, 48 h
The source made the active and inactive calls. Cut-off read from the data, not from the text of the source: active = GI50 up to about 1.1 µM and inactive = higher.
Outcome (select one): label 1 for active, label 0 for inactive

Consider the worked cases shown below.
OC1(c2ccccc2)CCCCCCCCC(O)(c2ccccc2)CCCCCCCC1 (centres undefined): label 0
Cc1cc(C)c(/C=C2\C(=O)Nc3ccccc32)[nH]1: label 0
CCCCOC(C)(C)/C=C/C(O)[C@](C)(O)[C@H]1[C@H](O)C[C@@]2(C)[C@@H]3CCc4c(cc(OC5OC(CO)C(O)C(O)C5O)c(O)c4C)C3(C)C(=O)C[C@]12C (some centres undefined): label 0
Cc1nnc2nc(-c3ccc(Cl)cc3Cl)cc(-c3ccc(Cl)cc3)n12: label 0
CCC1(C)C=Cc2c(cc(OC)c3c(=O)c4ccccc4n(C)c23)O1 (centres undefined): label 0
CC(C)OC(=O)OCSc1ccccc1/N=C/c1cccc([N+](=O)[O-])c1: label 0

Query: recorded result category for C/C(=N/NC(=S)Nc1ccc([N+](=O)[O-])cc1)c1cccc(/C(C)=N\NC(=S)Nc2ccc([N+](=O)[O-])cc2)n1 in this test
label 1

Query: recorded result category for C/C(=C\CO)CC/C=C(\C)CNc1ccc([N+](=O)[O-])cc1 in this test
label 0

Query: recorded result category for O=C1c2ccccc2-n2nnnc2C2CSCN12 (centres undefined) in this test
label 0

----------
# Tested on: M14
# Test Details: NCI tumour cell line growth inhibition, 48 h
Activity calls are given as the source filed them. Cut-off read from the data, not from the text of the source: active = GI50 up to about 1.1 µM and inactive = higher.
Outcome (select one): true = active, false = inactive

Consider the worked cases shown below.
O=S(=O)(Oc1ccc2ccccc2c1-c1c(OS(=O)(=O)C(F)(F)F)ccc2ccccc12)C(F)(F)F: false
COS(=O)CCOC(=O)c1ccccc1SSc1ccccc1C(=O)OCCS(=O)OC (configuration not stated): false
O=C1C(CN2CCCCC2)CCCC1CN1CCCCC1 (configuration not stated): false
O=C(CCc1cccc(O)c1)NCCCNC(=O)CCc1cccc(O)c1: false
O=C(O)Cc1ccc(Nc2nc3ccccc3nc2C(=O)O)cc1: false

Query: recorded result category for CC(C)(C)O/N=C/c1cc(NC(=S)c2ccsc2)ccc1Cl in this test
false

Query: recorded result category for N=C(N)NS(=O)(=O)c1ccc(NCc2c3ccccc3nc3ccccc23)cc1 in this test
false

Query: recorded result category for O=[N+]([O-])c1ccc(Sc2c3ccccc3nc3ccccc23)cn1 in this test
false

Query: recorded result category for CC(=O)N(C)c1ccc(Nc2ccnc3ccc4nn(C)nc4c23)cc1 in this test
false

Query: recorded result category for O=S(=O)(O)c1ccc2cc(/N=N\c3cc(S(=O)(=O)O)c4cccnc4c3O)ccc2c1 in this test
false

Query: recorded result category for CN1C2CCC1/C(=C/c1cccc3c1OCO3)C(=O)/C2=C\c1cccc2c1OCO2 in this test
false

----------
# Test system: T47D
# Test Details: NCI tumour cell line growth inhibition, 48 h
Activity calls are given as the source filed them. Rule as the data show it: active = GI50 up to about 1.1 µM and inactive = higher.
Kindly supply the reported GI50 values for the records listed here.

O=C(Cc1ccccc1)Nc1nc2ccc(Cl)cc2c2nc(-c3ccco3)nn12: > 100 µM (inactive)

Please state GI50 for every molecule in the list that follows.
1. CCOC(=O)C1=[N+]([O-])OC2=C(O)CCCC21 (stereo not drawn)
2. CC(C)OC(=O)OCSc1ccccc1/N=C/c1cccc([N+](=O)[O-])c1
3. CCc1nc2c(c(N(C)C)c1C(=O)OC)CCc1ccccc1-2

> 100 µM (inactive)
> 10 µM (inactive)
11 µM (inactive)

Please state GI50 for every molecule in the list that follows.
1. CN(C)N1C(=O)S/C(=C\c2ccc([N+](=O)[O-])cc2)C1=O
2. CCCCOC(C)(C)/C=C/C(O)[C@](C)(O)[C@H]1[C@H](O)C[C@@]2(C)[C@@H]3CCc4c(cc(OC5OC(CO)C(O)C(O)C5O)c(O)c4C)C3(C)C(=O)C[C@]12C (stereo partly drawn)
3. Nc1ncnc2c1nc(Cl)n2[C@@H]1O[C@@H]2COP(=O)(O)O[C@H]2[C@H]1O
4. CCOC(=O)c1c(-c2ccc(OC)cc2)c(C#N)c(=S)n(C2OC(COC(C)=O)C(OC(C)=O)C(OC(C)=O)C2OC(C)=O)c1C (stereo not drawn)

["65.5 µM (inactive)", "> 100 µM (inactive)", "14.7 µM (inactive)", "47.6 µM (inactive)"]
